Values compiled from PubChem BioAssay (NCI).

tested on: HOP-92 NSCLC; assay: NCI tumour cell line growth inhibition, 48 h
observed_property: TGI (µM)

>  <compound>
CCOC(=O)/C=C(/C(=O)OCC)n1ccc(=O)[nH]c1=O

>  <measured_target>
HOP-92 NSCLC

>  <value_comparator>
=

>  <endpoint_value>
4.32

$$$$
>  <compound>
Clc1ccc(Nc2nc3ccccc3c3occc23)cc1

>  <measured_target>
HOP-92 NSCLC

>  <value_comparator>
=

>  <endpoint_value>
13.2

$$$$
>  <compound>
COc1cccc2c1C(=O)c1c(O)c3c(c(O)c1C2=O)C[C@@](O)(/C(C)=N\O)C[C@@H]3OC1CC(N)C(O)C(C)O1 (some centres undefined)

>  <measured_target>
HOP-92 NSCLC

>  <value_comparator>
=

>  <endpoint_value>
7.31

$$$$
>  <compound>
CCOC(=O)C1(C(=O)OCC)CC=C(C)CC12C(=O)Nc1ccccc12 (centres undefined)

>  <measured_target>
HOP-92 NSCLC

>  <value_comparator>
>

>  <endpoint_value>
100

$$$$
